Biological target: LHRH (Rattus norvegicus, UniProt P30969)
Construct: endogenous in cells; host or cells: rat pituitary cells (own knowledge of the cited Haviv 1989 method)
Sequence (P30969 1-327): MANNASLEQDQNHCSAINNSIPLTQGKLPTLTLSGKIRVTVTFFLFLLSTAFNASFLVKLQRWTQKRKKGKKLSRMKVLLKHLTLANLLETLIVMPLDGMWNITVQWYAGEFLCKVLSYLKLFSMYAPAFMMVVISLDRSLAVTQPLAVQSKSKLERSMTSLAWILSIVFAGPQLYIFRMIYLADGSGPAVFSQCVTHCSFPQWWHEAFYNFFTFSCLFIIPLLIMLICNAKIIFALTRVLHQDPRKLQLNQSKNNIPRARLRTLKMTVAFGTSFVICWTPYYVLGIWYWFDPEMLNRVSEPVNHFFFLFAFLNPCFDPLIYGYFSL
Assay: in vitro test for LHRH antagonist potency (pA2)
Assay type: cell-based
Conditions: negative logarithm of the antagonist concentration required to shift the response curve produced by the agonist leuprolide to two-fold higher concentration
Non-standard residues stand in square brackets, D forms with d. Residues, ends and D or L forms follow the SMILES beside them. *: point of attachment. dPhe(4-Cl) = N[C@H](Cc1ccc(Cl)cc1)C(=O)O; d1Nal = N[C@H](Cc1cccc2ccccc12)C(=O)O; d2Nal = N[C@H](Cc1ccc2ccccc2c1)C(=O)O; Lys(iPr) = CC(C)NCCCC[C@H](N)C(=O)O; NMeY = CN[C@@H](Cc1ccc(O)cc1)C(=O)O; d3Pal = N[C@H](Cc1cccnc1)C(=O)O; Nicotinoyl = O=C(c1cccnc1)*; Picolinoyl = O=C(c1ccccn1)*; azaGly = NNC(=O)O
Exercise: state measured Kb for each of the compounds provided.
Write down the numeric answer in pM and omit the unit.

So what's the measured Kb for this one? CC(C)C[C@H](NC(=O)[C@@H](CCCCNC(=O)c1cccnc1)NC(=O)[C@H](Cc1ccc(O)cc1)N(C)C(=O)[C@H](CO)NC(=O)[C@@H](Cc1cccnc1)NC(=O)[C@@H](Cc1ccc(Cl)cc1)NC(=O)[C@@H](Cc1ccc2ccccc2c1)NC(=O)c1ccccn1)C(=O)N[C@@H](CCCCNC(C)C)C(=O)N1CCC[C@H]1C(=O)N[C@H](C)C(N)=O [Example 72e] (Picolinoyl-[d2Nal][dPhe(4-Cl)][d3Pal]S[NMeY][dK](Nicotinoyl)L[Lys(iPr)]P[dA]-NH2)
14.1

Note, next up: CC(C)C[C@H](NC(=O)[C@@H](CCCCNC(=O)c1cccnc1)NC(=O)[C@H](Cc1ccc(O)cc1)N(C)C(=O)[C@H](CO)NC(=O)[C@@H](Cc1cccc2ccccc12)NC(=O)[C@@H](Cc1ccc(Cl)cc1)NC(=O)NNC(=O)c1cccnc1)C(=O)N[C@@H](CCCCNC(C)C)C(=O)N1CCC[C@H]1C(=O)N[C@H](C)C(N)=O [Example 33c] (Nicotinoyl-[azaGly][dPhe(4-Cl)][d1Nal]S[NMeY][dK](Nicotinoyl)L[Lys(iPr)]P[dA]-NH2)
5.01

----------
Target: LHRH (Rattus norvegicus, UniProt P30969)
Construct: endogenous in cells; host or cells: rat pituitary cells (own knowledge of the cited Haviv 1989 method)
Test: in vitro test for LHRH antagonist potency (pA2)
Format: cell-based
Conditions: negative logarithm of the antagonist concentration required to shift the response curve produced by the agonist leuprolide to two-fold higher concentration
Non-standard residues stand in square brackets, D forms with d. Residues, ends and D or L forms follow the SMILES beside them. *: point of attachment. Shikimoyl = O=C(C1=C[C@@H](O)[C@@H](O)[C@H](O)C1)*; dPhe(4-Cl) = N[C@H](Cc1ccc(Cl)cc1)C(=O)O; d2Nal = N[C@H](Cc1ccc2ccccc2c1)C(=O)O; Lys(iPr) = CC(C)NCCCC[C@H](N)C(=O)O; NMeY = CN[C@@H](Cc1ccc(O)cc1)C(=O)O; d3Pal = N[C@H](Cc1cccnc1)C(=O)O; Nicotinoyl = O=C(c1cccnc1)*; GABA = NCCCC(=O)O
Exercise: state measured Kb for each of the molecules provided.
Write down the numeric answer in nM and omit the unit.

So what's the measured Kb for this one? CC(C)C[C@H](NC(=O)[C@@H](CCCCNC(=O)c1cccnc1)NC(=O)[C@H](Cc1ccc(O)cc1)N(C)C(=O)[C@H](CO)NC(=O)[C@@H](Cc1cccnc1)NC(=O)[C@@H](Cc1ccc(Cl)cc1)NC(=O)[C@@H](Cc1ccc2ccccc2c1)NC(=O)CNC(=O)C1CCCO1)C(=O)N[C@@H](CCCCNC(C)C)C(=O)N1CCC[C@H]1C(=O)N[C@H](C)C(N)=O (mixture of isomers)
0.0158

Note, next up: CC(C)C[C@H](NC(=O)[C@@H](CCCCNC(=O)c1cccnc1)NC(=O)[C@H](Cc1ccc(O)cc1)N(C)C(=O)[C@H](CO)NC(=O)[C@@H](Cc1cccnc1)NC(=O)[C@@H](Cc1ccc(Cl)cc1)NC(=O)[C@@H](Cc1ccc2ccccc2c1)NC(=O)CCCNC(=O)C1=C[C@@H](O)[C@@H](O)[C@H](O)C1)C(=O)N[C@@H](CCCCNC(C)C)C(=O)N1CCC[C@H]1C(=O)N[C@H](C)C(N)=O [Example 6d] ({Shikimoyl-GABA}-[d2Nal][dPhe(4-Cl)][d3Pal]S[NMeY][dK](Nicotinoyl)L[Lys(iPr)]P[dA]-NH2)
0.0126

----------
Biological target: LHRH (Rattus norvegicus)
Construct: endogenous in cells; host or cells: rat pituitary cells (own knowledge of the cited Haviv 1989 method)
Experiment: in vitro test for LHRH antagonist potency (pA2)
Type: cell-based
Conditions: negative logarithm of the antagonist concentration required to shift the response curve produced by the agonist leuprolide to two-fold higher concentration
Non-standard residues stand in square brackets, D forms with d. Residues, ends and D or L forms follow the SMILES beside them. *: point of attachment. Shikimoyl = O=C(C1=C[C@@H](O)[C@@H](O)[C@H](O)C1)*; dPhe(4-Cl) = N[C@H](Cc1ccc(Cl)cc1)C(=O)O; d2Nal = N[C@H](Cc1ccc2ccccc2c1)C(=O)O; NMeY = CN[C@@H](Cc1ccc(O)cc1)C(=O)O; hArg = N=C(N)NCCCC[C@H](N)C(=O)O; d3Pal = N[C@H](Cc1cccnc1)C(=O)O; Nicotinoyl = O=C(c1cccnc1)*
Exercise: state measured Kb for each of the compounds provided.
Write down the numeric answer in nM and omit the unit.

So what's the measured Kb for this one? CC(C)C[C@H](NC(=O)[C@@H](CCCCNC(=O)c1cccnc1)NC(=O)[C@H](Cc1ccc(O)cc1)N(C)C(=O)[C@H](CO)NC(=O)[C@@H](Cc1cccnc1)NC(=O)[C@@H](Cc1ccc(Cl)cc1)NC(=O)[C@@H](Cc1ccc2ccccc2c1)NC(=O)CNC(=O)C1CCCO1)C(=O)N[C@@H](CCCCNC(C)C)C(=O)N1CCC[C@H]1C(=O)N(C)CC(N)=O (mixture of isomers)
0.0309

Note, next up: "CC(C)C[C@H](NC(=O)[C@@H](CCCCNC(=O)c1cccnc1)NC(=O)[C@H](Cc1ccc(O)cc1)N(C)C(=O)[C@H](CO)NC(=O)[C@@H](Cc1cccnc1)NC(=O)[C@@H](Cc1ccc(Cl)cc1)NC(=O)[C@@H](Cc1ccc2ccccc2c1)NC(=O)CNC(=O)[C@@H]1CCCO1)C(=O)N[C@@H](CCCCNC(C)C)C(=O)N1CCC[C@H]1C(=O)N(C)CC(N)=O"
0.0155

Note, next up: CC(C)C[C@H](NC(=O)[C@@H](CCCCNC(=O)C1=C[C@@H](O)[C@@H](O)[C@H](O)C1)NC(=O)[C@H](Cc1ccc(O)cc1)N(C)C(=O)[C@H](CO)NC(=O)[C@@H](Cc1cccnc1)NC(=O)[C@@H](Cc1ccc(Cl)cc1)NC(=O)[C@@H](Cc1ccc2ccccc2c1)NC(=O)[C@@H](CO)NC(=O)c1cccnc1)C(=O)N[C@@H](CCCCNC(=N)N)C(=O)N1CCC[C@H]1C(=O)N[C@H](C)C(N)=O [Example 25b] (Nicotinoyl-[dS][d2Nal][dPhe(4-Cl)][d3Pal]S[NMeY][dK](Shikimoyl)L[hArg]P[dA]-NH2)
0.00794

----------
Molecular target: LHRH (Rattus norvegicus, UniProt P30969)
Construct: endogenous in cells; host or cells: rat pituitary cells (own knowledge of the cited Haviv 1989 method)
Test: in vitro test for LHRH antagonist potency (pA2)
Type: cell-based
Conditions: negative logarithm of the antagonist concentration required to shift the response curve produced by the agonist leuprolide to two-fold higher concentration
Non-standard residues stand in square brackets, D forms with d. Residues, ends and D or L forms follow the SMILES beside them. *: point of attachment. Shikimoyl = O=C(C1=C[C@@H](O)[C@@H](O)[C@H](O)C1)*; Tetrahydrofuroyl(2R) = O=C([C@H]1CCCO1)*; dPhe(4-Cl) = N[C@H](Cc1ccc(Cl)cc1)C(=O)O; d2Nal = N[C@H](Cc1ccc2ccccc2c1)C(=O)O; Acetyl(3-pyridyl) = O=C(Cc1cccnc1)*; Lys(iPr) = CC(C)NCCCC[C@H](N)C(=O)O; NMeY = CN[C@@H](Cc1ccc(O)cc1)C(=O)O; dCit = NC(=O)NCCC[C@@H](N)C(=O)O; d3Pal = N[C@H](Cc1cccnc1)C(=O)O; Isonicotinoyl = O=C(c1ccncc1)*; Nicotinoyl = O=C(c1cccnc1)*; βAla = NCCC(=O)O
MEASUREMENT_KIND: log10 Kb (log10 of the value in pM)
Log10 applied to Kb; unit prior to transform: pM.

So what's the measured log10 Kb for this one? CC(C)C[C@H](NC(=O)[C@@H](CCCCNC(=O)c1cccnc1)NC(=O)[C@H](Cc1ccc(O)cc1)N(C)C(=O)[C@H](CO)NC(=O)[C@@H](Cc1cccnc1)NC(=O)[C@@H](Cc1ccc(Cl)cc1)NC(=O)[C@@H](Cc1ccc2ccccc2c1)NC(=O)[C@H]1CCCO1)C(=O)N[C@@H](CCCCNC(C)C)C(=O)N1CCC[C@H]1C(=O)N[C@H](C)C(N)=O [Example 68] ({Tetrahydrofuroyl(2R)}-[d2Nal][dPhe(4-Cl)][d3Pal]S[NMeY][dK](Nicotinoyl)L[Lys(iPr)]P[dA]-NH2)
1.15

Note, next up: CC(C)C[C@H](NC(=O)[C@@H](CCCNC(N)=O)NC(=O)[C@H](Cc1ccc(O)cc1)N(C)C(=O)[C@H](CO)NC(=O)[C@@H](Cc1cccnc1)NC(=O)[C@@H](Cc1ccc(Cl)cc1)NC(=O)[C@@H](Cc1ccc2ccccc2c1)NC(=O)CNC(=O)C1=C[C@@H](O)[C@@H](O)[C@H](O)C1)C(=O)N[C@@H](CCCNC(=N)N)C(=O)N1CCC[C@H]1C(=O)N[C@H](C)C(N)=O [Example 13b] (Shikimoyl-G[d2Nal][dPhe(4-Cl)][d3Pal]S[NMeY][dCit]LRP[dA]-NH2)
0.98

Note, next up: CC(C)C[C@H](NC(=O)[C@@H](CCCCNC(=O)c1cccnc1)NC(=O)[C@H](Cc1ccc(O)cc1)N(C)C(=O)[C@H](CO)NC(=O)[C@@H](Cc1cccnc1)NC(=O)[C@@H](Cc1ccc(Cl)cc1)NC(=O)[C@@H](Cc1ccc2ccccc2c1)NC(=O)c1ccncc1)C(=O)N[C@@H](CCCCNC(C)C)C(=O)N1CCC[C@H]1C(=O)N[C@H](C)C(N)=O [Example 72g] (Isonicotinoyl-[d2Nal][dPhe(4-Cl)][d3Pal]S[NMeY][dK](Nicotinoyl)L[Lys(iPr)]P[dA]-NH2)
1.30

Note, next up: CC(C)C[C@H](NC(=O)[C@@H](CCCCNC(=O)c1cccnc1)NC(=O)[C@H](Cc1ccc(O)cc1)N(C)C(=O)[C@H](CO)NC(=O)[C@@H](Cc1cccnc1)NC(=O)[C@@H](Cc1ccc(Cl)cc1)NC(=O)[C@@H](Cc1ccc2ccccc2c1)NC(=O)Cc1cccnc1)C(=O)N[C@@H](CCCCNC(C)C)C(=O)N1CCC[C@H]1C(=O)N[C@H](C)C(N)=O [Example 72h] ({Acetyl(3-pyridyl)}-[d2Nal][dPhe(4-Cl)][d3Pal]S[NMeY][dK](Nicotinoyl)L[Lys(iPr)]P[dA]-NH2)
0.80

Note, next up: CC(C)C[C@H](NC(=O)[C@@H](CCCCNC(=O)C1=C[C@@H](O)[C@@H](O)[C@H](O)C1)NC(=O)[C@H](Cc1ccc(O)cc1)N(C)C(=O)[C@H](CO)NC(=O)[C@@H](Cc1cccnc1)NC(=O)[C@@H](Cc1ccc(Cl)cc1)NC(=O)[C@@H](Cc1ccc2ccccc2c1)NC(=O)CCNC(=O)c1cccnc1)C(=O)N[C@@H](CCCNC(=N)N)C(=O)N1CCC[C@H]1C(=O)N[C@H](C)C(N)=O [Example 27d] ({Nicotinoyl-βAla}-[d2Nal][dPhe(4-Cl)][d3Pal]S[NMeY][dK](Shikimoyl)LRP[dA]-NH2)
0.25

The measured values listed here are drawn from patent US5502035A.
